Test system UniProt P14842, IC50 listed for each of the compounds.
Report only the number, with the unit nM understood.

Query Cc1ccc2c(C3CCN(CCN4CCN(C(C)C)C4=O)CC3)cn(-c3ccc(F)cc3)c2c1 [Compound 5a] on UniProt P14842; IC50 returned: 1.6

Query COc1ccc2c(C3CCN(CCN4CCN(C(C)C)C4=O)CC3)cn(-c3ccc(F)cc3)c2c1 [Compound 4i] on UniProt P14842; IC50 returned: 7.1

Query CC(C)N1CCN(CCN2CC=C(c3cn(-c4ccc(F)cc4)c4cc(Cl)ccc34)CC2)C1=O [Compound 2a] on UniProt P14842; IC50 returned: 3.5

Query CN(C)CCSc1nc2ccccc2cc1-c1ccccc1 [ICI 169369, reference compound] on UniProt P14842; IC50 returned: 15

Query Cc1ccc2c(C3CCN(CCN4CCN(C(C)C)C4=O)CC3)cn(-c3ccccc3F)c2c1 [Compound 15f] on UniProt P14842; IC50 returned: 2.5

Query Cc1ccc2c(C3CCN(CCN4CCNC4=O)CC3)cn(-c3ccc(F)cc3)c2c1 [Compound 4g] on UniProt P14842; IC50 returned: 0.8

Query CSc1ccc2c(C3CCN(CCN4CCN(C(C)C)C4=O)CC3)cn(-c3ccc(F)cc3)c2c1 [Compound 19a] on UniProt P14842; IC50 returned: 3.2

Query Cc1ccc2c(C3CCN(CCN4CCN(C(C)C)C4=O)CC3)cn(-c3ccccc3)c2c1 [Compound 15a] on UniProt P14842; IC50 returned: 2

Query CN(C)C(=S)NCCN1CCC(c2cn(-c3ccc(F)cc3)c3cc(Cl)ccc23)CC1 [Compound 9f] on UniProt P14842; IC50 returned: 2.5

Query CC(C)N1CCN(CCN2CCC(c3cn(-c4ccc(F)cc4)c4cc(Br)ccc34)CC2)C1=O [Compound 5b] on UniProt P14842; IC50 returned: 2

Query CC(C)N1CCN(CCN2CCC(c3cn(-c4ccc(F)cc4)c4cc(C(F)(F)F)ccc34)CC2)C1=O [Compound 4c] on UniProt P14842; IC50 returned: 2.9

Query CC(C)N1CCN(CCN2CCC(c3cn(-c4ccc(F)cc4)c4cc5c(cc34)CCC5)CC2)C1=O [Compound 5g] on UniProt P14842; IC50 returned: 3.2

Query Cc1ccc2c(c1)N(c1ccc(F)cc1)CC2C1CCN(CCN2CCN(C(C)C)C2=O)CC1 (centres unmarked) [Compound 20a] on UniProt P14842; IC50 returned: 5.3

Query CC(C)c1ccc2c(C3CCN(CCN4CCN(C(C)C)C4=O)CC3)cn(-c3ccc(F)cc3)c2c1 [Compound 5c] on UniProt P14842; IC50 returned: 16

Query CC(C)N1CCN(CCN2CCC(c3cn(-c4ccc(F)cc4)c4cc(Cl)ccc34)CC2)C1=S [Compound 13a] on UniProt P14842; IC50 returned: 4.4

Query Cc1ccc2c(C3CCN(CCN4CCN(C(C)C)C4=O)CC3)cn(-c3ccoc3)c2c1 [Compound 15d] on UniProt P14842; IC50 returned: 9.3

Query Cc1ccc2c(C3CCN(CCN4CCN(C(C)C)C4=O)CC3)cn(-c3cccc(C(F)(F)F)c3)c2c1 [Compound 15i] on UniProt P14842; IC50 returned: 150

Query O=C1NCCN1CCN1CCC(c2cn(-c3ccccc3)c3cc(Cl)ccc23)CC1 [Compound 15m] on UniProt P14842; IC50 returned: 4.4

Query OCCN1CCC(c2cn(-c3ccc(F)cc3)c3cc(Cl)ccc23)CC1 [Compound 4f] on UniProt P14842; IC50 returned: 11

###

Test system serotonin S2 (5-HT2) receptors (Rattus norvegicus), pIC50 listed for each of the molecules.
Conceptually, pIC50 converts a concentration in mol/L into minus its log10.

Guide cases for pIC50, answers given:
molecule: Cc1ccc2c(C3CCN(CCN4CCN(C(C)C)C4=O)CC3)cn(-c3ccncc3)c2c1 [Compound 15e]
pIC50: 8.12
//
molecule: CC(C)N1CCN(CCN2CCC(c3cn(-c4ccc(F)cc4)c4cc(S(C)(=O)=O)ccc34)CC2)C1=O
pIC50: 8.05
//
molecule: CC(C)N1CCN(CCN2CCC(C3CN(c4ccc(F)cc4)c4cc(Cl)ccc43)CC2)C1=O (centres unmarked) [Compound 21a]
pIC50: 8.02
//
molecule: CC(C)N(C)C(=O)NCCN1CCC(c2cn(-c3ccc(F)cc3)c3cc(Cl)ccc23)CC1
pIC50: 8.21
//
molecule: O=C1NCCN1CCN1CCC(c2cn(-c3ccc(F)cc3)c3cc(Br)ccc23)CC1
pIC50: 8.74
//
molecule: O=C1NCCN1CCN1CCC(c2cn(-c3ccc(F)cc3)c3cc(Cl)ccc23)CC1
pIC50: 8.85
//
molecule: CCN(CCN1CCC(c2cn(-c3ccc(F)cc3)c3cc(Cl)ccc23)CC1)C(=O)N(C)C
pIC50: 8.19

Now take the following molecule into account.
Query "CC(C)c1ccc2c(C3CCN(CCN4CCNC4=O)CC3)cn(-c3ccc(F)cc3)c2c1" on serotonin S2 (5-HT2) receptors (Rattus norvegicus); pIC50 returned: 7.74

###

- system-tested: 5-HT2 (Rattus norvegicus)
- Construct: Four rats, male Wistar (Mol:Wist) SPF rats weighing 170-240 g; from tissue; host or cells: living male Wistar (Mol:Wist) SPF rats (in vivo, endogenous receptor)
- Sequence (P14842 whole entry): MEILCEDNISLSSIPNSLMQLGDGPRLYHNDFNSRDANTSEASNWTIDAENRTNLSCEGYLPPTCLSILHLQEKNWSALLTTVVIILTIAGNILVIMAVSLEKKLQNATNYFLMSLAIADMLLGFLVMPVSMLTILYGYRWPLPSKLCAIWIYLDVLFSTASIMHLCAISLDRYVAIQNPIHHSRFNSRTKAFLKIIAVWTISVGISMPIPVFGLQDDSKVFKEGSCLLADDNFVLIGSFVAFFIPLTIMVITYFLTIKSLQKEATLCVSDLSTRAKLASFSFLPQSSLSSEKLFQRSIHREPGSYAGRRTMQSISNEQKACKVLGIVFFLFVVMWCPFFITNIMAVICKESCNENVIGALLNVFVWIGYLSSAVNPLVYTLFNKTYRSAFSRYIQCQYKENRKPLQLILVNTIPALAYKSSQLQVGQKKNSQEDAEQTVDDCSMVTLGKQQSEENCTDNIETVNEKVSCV
- protocol-text: quipazine inhibition (quipazine-induced head twitches in rats)
- Assay type: in vivo
- reported-conditions: sc, 2 h, read-out: Quipazine inhibition ED50, 2h (sc)
Reported log10 of ED50 values for the following compounds.
Note the log scale: values are log10 of ED50 expressed in µmol/kg.

Guide cases for log10 of ED50, answers given:
compound: CC(C)N1CCN(CCN2CCC(c3cn(-c4ccc(F)cc4)c4cc(Cl)ccc34)CC2)C1=O
log10 of ED50: -0.96

compound: Cc1ccc2c(C3CCN(CCN4CCN(C(C)C)C4=O)CC3)cn(-c3ccc(F)cc3)c2c1
log10 of ED50: -1.40

compound: CC(C)N1CCN(CCN2CCC(c3cn(-c4ccccc4F)c4cc(Cl)ccc34)CC2)C1=O [Compound 15j]
log10 of ED50: -1.10

compound: O=C1NCCN1CCN1CCC(c2cn(-c3ccc(F)cc3)c3cc(Cl)ccc23)CC1
log10 of ED50: -1.22

compound: Cc1ccc2c(C3CCN(CCNC(=O)N(C)C)CC3)cn(-c3ccc(F)cc3)c2c1
log10 of ED50: -0.92

compound: O=C1NCCN1CCN1CCC(c2cn(-c3ccc(F)cc3)c3cc(Cl)c(Cl)cc23)CC1
log10 of ED50: -0.92

Record summary for Cc1ccc2c(C3CCN(CCN4CCN(C(C)C)C4=O)CC3)cn(-c3ccccc3)c2c1 [Compound 15a] : reported log10 of ED50 = -2.00

###

- system-tested: DA D-2 (Rattus norvegicus)
- Construct: Male Wistar rats (Mol:Wist) weighing about 200 g at the time of operation are used; from tissue; host or cells: living male Wistar (Mol:Wist) rats with unilateral 6-OHDA lesions (in vivo, endogenous receptor)
- Sequence (P61169 whole entry): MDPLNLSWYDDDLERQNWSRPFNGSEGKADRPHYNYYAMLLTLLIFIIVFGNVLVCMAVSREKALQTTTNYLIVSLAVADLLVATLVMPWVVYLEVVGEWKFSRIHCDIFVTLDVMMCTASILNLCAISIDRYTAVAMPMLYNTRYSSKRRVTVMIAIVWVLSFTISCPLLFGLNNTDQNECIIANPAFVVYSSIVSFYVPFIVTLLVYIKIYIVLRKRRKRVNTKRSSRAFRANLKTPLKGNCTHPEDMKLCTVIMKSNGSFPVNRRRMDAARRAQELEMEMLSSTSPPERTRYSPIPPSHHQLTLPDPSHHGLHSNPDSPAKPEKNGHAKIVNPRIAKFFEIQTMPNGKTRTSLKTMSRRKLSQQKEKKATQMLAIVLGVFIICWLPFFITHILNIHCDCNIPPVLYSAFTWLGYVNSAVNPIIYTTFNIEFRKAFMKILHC
- protocol-text: antagonism of pergolide-induced circling behaviour in rats with unilateral 6-OHDA lesions
- Format: in vivo
- reported-conditions: sc, read-out: Pergolide rot. inhibition ED50, 2h (sc), 6-OHDA lesions, s.c., 2 h before pergolide
Reported ED50 values for the following molecules.

Guide cases for ED50, answers given:
molecule: OCCN1CCN(c2cn(-c3ccc(F)cc3)c3ccc(C(F)(F)F)cc23)CC1 [Lu 21-152, reference compound]
ED50: 0.02 µmol/kg
//
molecule: O=C1NCCN1CCN1CCC(c2cn(-c3ccc(F)cc3)c3cc(Cl)ccc23)CC1
ED50: > 23 µmol/kg

Now take the following molecule into account.
Record summary for "Cc1nc2sccn2c(=O)c1CCN1CCC(=C(c2ccc(F)cc2)c2ccc(F)cc2)CC1" : reported ED50 = > 21 µmol/kg

###

Test system serotonin S2 (5-HT2) receptors (Rattus norvegicus, UniProt P14842), pIC50 listed for each of the compounds.
Conceptually, pIC50 converts a concentration in mol/L into minus its log10.

Guide cases for pIC50, answers given:
compound: CC(C)N1CCN(CCN2CCC(c3cn(-c4ccc(F)cc4)c4cc(Cl)ccc34)CC2)C1=O [Compound 4a]
reported-metric: pIC50
number: 8.82
//
compound: Fc1ccc(-n2cc(C3CCN(CCN4CCNC4=S)CC3)c3ccc(Cl)cc32)cc1 [Compound 12a]
reported-metric: pIC50
number: 8.21
//
compound: CN(C)C(=O)NCCN1CCC(c2cn(-c3ccc(F)cc3)c3cc(Cl)ccc23)CC1 [Compound 9l]
reported-metric: pIC50
number: 8.89

Query Cc1ccc2c(C3CCN(CCN4CCN(C(C)C)C4=O)CC3)cn(-c3ccc(Cl)cc3)c2c1 [Compound 15h] on serotonin S2 (5-HT2) receptors (Rattus norvegicus, UniProt P14842); pIC50 returned: 8.22

Query Cc1ccc2c(C3CCN(CCNC(=O)N(C)C)CC3)cn(-c3ccc(F)cc3)c2c1 [Compound 9b] on serotonin S2 (5-HT2) receptors (Rattus norvegicus, UniProt P14842); pIC50 returned: 8.59

Query Cc1ccc2c(C3CCN(CCNC(=O)NC(C)C)CC3)cn(-c3ccc(F)cc3)c2c1 [Compound 9a] on serotonin S2 (5-HT2) receptors (Rattus norvegicus, UniProt P14842); pIC50 returned: 8.74

Query COc1ccc2c(C3CCN(CCN4CCOC4=O)CC3)cn(-c3ccc(F)cc3)c2c1 [Compound 4j] on serotonin S2 (5-HT2) receptors (Rattus norvegicus, UniProt P14842); pIC50 returned: 7.40

Query CC(C)NC(=O)N(C)CCN1CCC(c2cn(-c3ccc(F)cc3)c3cc(Cl)ccc23)CC1 [Compound 9i] on serotonin S2 (5-HT2) receptors (Rattus norvegicus, UniProt P14842); pIC50 returned: 8.66
